B1: C10orf62 (parent)
chain: TSECPSDKDKSPESHKAKNESWIK

Variants of: B1
protocol summary: protein stability index of a GFP-peptide fusion (GPS, HEK-293T) (PSI 1-6); higher = more stable;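 note: lentivirally expressed fusions sorted by FACS into six bins by GFP to DsRed ratio, PSI derived from sequencing read proportions per bin multiplied by bin number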
condition info: c terminus: a fixed tail appended
Grouping key: protein stability index. Bins: low (below 3), intermediate (3 to below 4), high (4 or more)

{"columns": ["mutant label", "class assignment"],
 "data": [
  ["S11N", "intermediate"],
  ["K16A", "high"],
  ["H15A", "high"],
  ["N19R", "low"],
  ["D7W", "low"],
  ["H15G", "intermediate"],
  ["E3R", "intermediate"],
  ["E13R", "low"],
  ["D7E", "low"],
  ["E13Q", "intermediate"],
  ["K8C", "intermediate"],
  ["E20S", "high"],
  ["P5T", "low"],
  ["K16Y", "intermediate"],
  ["D7M", "low"],
  ["D7K", "intermediate"],
  ["E3V", "low"],
  ["C4T", "intermediate"],
  ["I23N", "high"],
  ["C4D", "intermediate"],
  ["C4K", "intermediate"],
  ["W22N", "high"],
  ["N19V", "intermediate"],
  ["C4P", "intermediate"],
  ["E3I", "low"],
  ["D7Q", "intermediate"],
  ["S2H", "intermediate"],
  ["A17D", "intermediate"],
  ["K10F", "intermediate"],
  ["W22T", "high"],
  ["K10G", "low"],
  ["K24C", "intermediate"],
  ["D7N", "intermediate"],
  ["W22Q", "high"],
  ["S2F", "intermediate"],
  ["S2A", "low"],
  ["W22E", "high"],
  ["S14E", "high"],
  ["P12V", "low"],
  ["S6D", "intermediate"],
  ["A17H", "intermediate"],
  ["E13S", "intermediate"],
  ["C4E", "intermediate"],
  ["K18Y", "high"],
  ["P12C", "intermediate"],
  ["S6H", "intermediate"],
  ["K8M", "intermediate"],
  ["D7H", "low"],
  ["S6E", "intermediate"],
  ["C4S", "low"],
  ["K24M", "low"],
  ["A17Y", "intermediate"],
  ["S2W", "intermediate"],
  ["E3G", "intermediate"],
  ["D7I", "low"],
  ["S11Q", "low"],
  ["I23P", "high"],
  ["A17Q", "intermediate"],
  ["E13A", "low"],
  ["D9P", "intermediate"],
  ["K10W", "low"],
  ["S14A", "intermediate"],
  ["K8Q", "intermediate"],
  ["D9Y", "low"],
  ["W22A", "high"],
  ["E20P", "high"],
  ["A17R", "low"],
  ["E3Y", "low"],
  ["S11M", "intermediate"],
  ["D9H", "intermediate"],
  ["S14M", "intermediate"],
  ["P5R", "intermediate"],
  ["E20C", "high"],
  ["K24G", "intermediate"]
]}
